# method description: gradient 5% acetonitrile 3 min, to 50% in 2 min, to 85% in 15 min, held 3 min, 100 µL/min
# measurement setup: column: Zorbax Extend-C18 2.1 x 50 mm; eluents: water / acetonitrile, 0.1% formic acid
experimental endpoint: RP-LC retention time (s)
A number alone suffices; assume s.

response.value for "Cc1noc(-c2ccc(NC(=O)c3cccs3)cc2)n1" (field: RP-LC retention time) = 776

# molecule CC(CCc1ccco1)NC(=O)C1CCN(c2nc(-c3ccc(Cl)cc3)no2)CC1 (centres undefined) ; its RP-LC retention time = 1080

Input "CSc1ccc(-c2nc3cnccn3c2Nc2ccc(Cl)cc2)cc1" . Output RP-LC retention time: 1010

Kindly note the recorded RP-LC retention time for O=C(Nc1cccc(Br)c1)C1CC(=O)N(c2n[nH]c3cccc(F)c23)C1 (centres undefined) , which is 824

Recorded RP-LC retention time (molecule "COc1ccccc1N1CCN(C(=O)C2CCN(c3c(C)n(C)c(=O)n(C)c3=O)CC2)CC1" ): 718

response.value for "CCc1nc(-c2ccc(S(=O)(=O)N3CCC(C(=O)NCc4ccc5c(c4)OCO5)CC3)cc2)no1" (field: RP-LC retention time) = 929

// RP-LC retention time value for "CC(=O)Nc1cccc(-c2nc(-c3cccc(-c4ccn[nH]4)c3)no2)c1" : 763

Entry Cc1nn(C)c(C)c1S(=O)(=O)N1CCC(n2c(C)cnc2-c2ccccc2)C1 (centres undefined) ; RP-LC retention time = 618

Reported RP-LC retention time of CCC(c1cccs1)N1C(=O)[C@H]2CN(S(=O)(=O)c3ccc(F)c(F)c3)C[C@H]2C1=O (some centres undefined) : 1020

For reference, reported RP-LC retention time for "CCN1CN=C(Nc2nc(C)c3cc(OC)ccc3n2)NC1" stands at 622

RP-LC retention time reported for this molecule Cc1ccc(C)c(S(=O)(=O)N2CC(c3noc(C)n3)C3(CCOCC3)C2)c1 (centres undefined) : 929

Form field RP-LC retention time, entry CCS(=O)(=O)Nc1ccc(C2=NN(C(=O)c3ccco3)C(c3cccs3)C2)cc1 (centres undefined) : 764

The reported RP-LC retention time of the molecule "c1ccc(-c2nc3nc4c(c(Nc5ccc6c(c5)OCCO6)n3n2)CCCC4)cc1" was 970

Lab book: RP-LC retention time of "Cc1cc(=O)n(CC(=O)Nc2ccc3c(c2)OCO3)c(N2CCCC2)n1" noted as 629

Sample "COc1ccc(NC(=O)Cn2c(N3CCc4ccccc4C3)nc(C)cc2=O)cc1" ; RP-LC retention time observed: 757

Entry "COc1cc(CNC(=O)Cn2ccc3c(=O)n(C)c(=O)n(C)c32)cc(OC)c1" , RP-LC retention time reported as 662

Sample "Cn1cccc1C(=O)N1CC[C@@H]2CN(S(C)(=O)=O)[C@@H]2C1" ; RP-LC retention time observed: 624

In plain terms, "CCC(=O)N1CCc2sc(S(=O)(=O)N3CCN(c4ccccc4C)CC3)cc2C1" has a documented RP-LC retention time of 1030

Entry under test: "O=C(c1ccc2[nH]ccc2c1)N1CCN(c2cc(-c3ccccc3)[nH]n2)CC1" . Its RP-LC retention time was 728
